Target: GST-SBP-SLBP (stem-loop binding protein) (Homo sapiens, UniProt Q14493 1-270)
Assay notes: targeted RNA Bind-n-Seq; RBNS binding buffer: 25 mM Tris pH 7.5, 150 mM KCl, 3 mM MgCl2, 0.1% Tween, 0.5 mg/mL BSA, 1 mM DTT; 27 nM protein, 750 pM RNA pool; temperature not stated; high values mean tight binding
Reported conditions: protein: recombinant; tags: N-terminal GST and SBP (pGEX6P1-SBP)
Label rule, in plain words: binding signal of 3 log2 fold change and up is y, under 3 log2 fold change is n.

Task: Check the entry consensus (structured_RNA) RNA: GGUCACGUCUCAAUCAACUCCCAAAGGUCUUUCUCAGGGCCACCCAUCAACAGCUCGCAGUCAAG : does binding signal equal or exceed 3 log2 fold change?
Result: n

Task: Could you please find out whether consensus (structured_RNA) RNA: GGUCACGUCUCAAUCAACUCCCAAAGGCUUUUUUCAGGGCCACCCAUCAACAGCUCGCAGUCAAG has binding signal that meets 3 log2 fold change or exceeds it?
Result: n

Task: Answer whether binding signal of consensus (structured_RNA) RNA: GGUCACGUCUCAAUCAACUCCCAAAGGUUCUUUUAAGGGCCACCCAUCAACAGCUCGCAGUCAAG is greater than or equal to 3 log2 fold change.
Result: n

Task: Is it the case that consensus (structured_RNA) RNA: GGUCACGUCUCAAUCAACUCCCAAAGGUCCUUUUCAGGACCACCCAUCAACAGCUCGCAGUCAAG has binding signal reaching or exceeding 3 log2 fold change?
Result: y

Task: Does the binder consensus (structured_RNA) RNA: GGUCACGUCUCAAUCAACUCCCAAAGGUUCUUUUCAGAACCACCCAUCAACAGCUCGCAGUCAAG have recorded binding signal that is 3 log2 fold change or more?
Result: y

Task: hey, is binding signal for this one >= 3 log2 fold change? consensus (structured_RNA) RNA: GGUCACGUCUCAAUCAACUCCCAAAGGCUCUUUUGAGAGCCACCCAUCAACAGCUCGCAGUCAAG
Result: n
